Test system: Sagittaria pygmaea, L.
run.description: Preemergence weed control under flooded paddy conditions, SAGPY (Arrowhead (Pygmaea)); further: meaning of each grade not given here
Assay type: in vivo
condition: 0.2500 kg/ha; preemergence weeds, flooded paddy; rated three to four weeks after treatment
assay.endpoint: herbicidal effect rating, SAGPY
API doc: respond with a numeric literal and nothing else, no unit.

>>> print(df.to_string())
                                   compound             test_system  recorded_number
0  Cn1c(C(F)(F)F)cc(=O)n(-c2ccc3snc(N4CCOCC4)c3c2)c1=O  Sagittaria pygmaea, L.              0.0
1  CCOCCOCc1nsc2ccc(-n3c(=O)cc(C(F)(F)F)n(C)c3=O)cc12  Sagittaria pygmaea, L.              4.0
2  Cn1c(C(F)(F)F)cc(=O)n(-c2ccc3snc(C(Cl)Cl)c3c2)c1=O  Sagittaria pygmaea, L.              6.0
3  CCc1nsc2ccc(-n3c(=O)cc(C(F)(F)F)n(C)c3=O)cc12  Sagittaria pygmaea, L.              9.0
4  Cn1c(C(F)(F)F)cc(=O)n(-c2ccc3snc(NS(C)(=O)=O)c3c2)c1=O  Sagittaria pygmaea, L.              0.0

Item COCC(C)OC(=O)COc1ccc(C)cc1-c1nsc2ccc(-n3c(=O)cc(C(F)(F)F)n(C)c3=O)cc12 (racemic) has what recorded herbicidal effect rating, SAGPY? 9.0

Note, next up: "COC(=O)C=CCOc1ccc(C)cc1-c1nsc2ccc(-n3c(=O)cc(C(F)(F)F)n(C)c3=O)cc12" 0.0
